# pIC50 per record follows
- test-target: mTOR (Homo sapiens)
- Construct: mTOR protein was isolated from HeLa cell cytoplasmic extract by immunoprecipitation; endogenous in cells; host or cells: HeLa cell cytoplasmic extract (immunoprecipitate)
- experimental-details: Biological Assay: mTOR enzyme activity, mTOR immunoprecipitated from HeLa cell cytoplasmic extract, recombinant PHAS-1 as substrate
- Format: biochemical
- protocol-conditions: Biological Assay, upper bounds; read-out: IC50 values against mTOR
pIC50: −log10 of the molar value.

C[C@@H]1CN(c2nc(N3CCOCC3)c3ccc(-c4ccc(Cl)cc4)nc3n2)C[C@H](C)O1 = > 7.00

Input: May I ask what pIC50 has been recorded for COc1ccc(-c2ccc3c(N4CCOCC4)nc(N4C[C@@H](C)O[C@@H](C)C4)nc3n2)cc1CNCCO ?
Output: > 7.00

Input: Another compound to look at: C[C@@H]1CN(c2nc(N3CCOCC3)c3ccc(-c4ccco4)nc3n2)C[C@H](C)O1
Output: > 6.00

Input: Also, C[C@@H]1CN(c2nc(N3CCOCC3)c3ccc(NCC4CC4)nc3n2)C[C@H](C)O1 please.
Output: > 5.00

Input: What do we get for COc1ccc(-c2ccc3c(N4CCOCC4)nc(N4C[C@@H](C)O[C@@H](C)C4)nc3n2)cc1CNC1CCc2ccccc21 (stereo partly drawn) ?
Output: > 7.00

Input: Request: Cc1ccc(-c2ccc3c(N4CCOCC4)nc(N4C[C@@H](C)O[C@@H](C)C4)nc3n2)s1
Output: > 6.00

Input: Consider next the compound COc1ccc(-c2ccc3c(N4CCOCC4)nc(N4C[C@@H](C)O[C@@H](C)C4)nc3n2)cc1CNCCSCCO in the same way.
Output: > 7.00

Input: Do the same for Cc1cccc(Nc2ccc3c(N4CCOCC4)nc(N4C[C@@H](C)O[C@@H](C)C4)nc3n2)n1 please
Output: > 6.00

Input: Record: C[C@@H]1CN(c2nc(N3CCOCC3)c3ccc(Nc4nccc5cccnc45)nc3n2)C[C@H](C)O1
Output: > 6.00

Input: Next entry: COc1ccc(-c2ccc3c(N4CCOCC4)nc(N4C[C@@H](C)O[C@@H](C)C4)nc3n2)cc1CNCc1ccc2c(c1)OCO2
Output: > 7.00

Input: Please do the same for COc1ccc(-c2ccc3c(N4CCOCC4)nc(N4C[C@@H](C)O[C@@H](C)C4)nc3n2)cc1F as well.
Output: > 6.00

Input: Here is the next compound: C[C@@H]1CN(c2nc(N3CCOCC3)c3ccc(Nc4nc(-c5ccccc5Cl)cs4)nc3n2)C[C@H](C)O1
Output: > 5.00

Input: Then C[C@@H]1CN(c2nc(N3CCOCC3)c3ccc(NC4CCN(C)CC4)nc3n2)C[C@H](C)O1 ?
Output: > 5.00

Input: What do you get for CCN(CC)CCCNCc1cc(-c2ccc3c(N4CCOCC4)nc(N4C[C@@H](C)O[C@@H](C)C4)nc3n2)ccc1OC ?
Output: > 7.00

Input: Then this compound: C[C@@H]1CN(c2nc(N3CCOCC3)c3ccc(NC(=O)c4nc[nH]c4N)nc3n2)C[C@H](C)O1
Output: > 5.00

====

- test-target: mTOR (Homo sapiens, UniProt P42345)
- Construct: mTOR protein was isolated from HeLa cell cytoplasmic extract by immunoprecipitation; endogenous in cells; host or cells: HeLa cell cytoplasmic extract (immunoprecipitate)
- experimental-details: Biological Assay: mTOR enzyme activity, mTOR immunoprecipitated from HeLa cell cytoplasmic extract, recombinant PHAS-1 as substrate
- Assay type: biochemical
- protocol-conditions: Biological Assay, upper bounds; read-out: IC50 values against mTOR
property-measured: IC50

Below are worked cases with known answers.
COc1ccc(-c2ccc3c(N4CCOCC4)nc(N4C[C@@H](C)O[C@@H](C)C4)nc3n2)cc1CNCC1CC1 = < 0.1 µM
COc1ccc(-c2ccc3c(N4CCOCC4)nc(N4C[C@@H](C)O[C@@H](C)C4)nc3n2)cc1CN[C@H](CO)CCSC = < 1 µM
C/C=C/C(=O)Nc1ccc2c(N3CCOCC3)nc(N3C[C@@H](C)O[C@@H](C)C3)nc2n1 = < 1 µM
COc1ccc(-c2ccc3c(N4CCOCC4)nc(N4C[C@@H](C)O[C@@H](C)C4)nc3n2)cc1CNCc1ccccc1[35Cl] = < 0.1 µM
C[C@@H]1CN(c2nc(N3CCOCC3)c3ccc(Nc4nccc(-c5ccco5)n4)nc3n2)C[C@H](C)O1 = < 1 µM

Input: // map COc1ccc(-c2ccc3c(N4CCOCC4)nc(N4C[C@@H](C)O[C@@H](C)C4)nc3n2)cc1CNCCCc1ccccc1 to recorded IC50 (system: mTOR (Homo sapiens, UniProt P42345))
Output: < 0.1 µM

Input: What about this molecule? C[C@@H]1CN(c2nc(N3CCOCC3)c3ccc(NC(=O)c4cnc5ccccc5n4)nc3n2)C[C@H](C)O1
Output: < 10 µM
